Protocol Description: NCI Yeast Anticancer Drug Screen. Data for the wt1 strain (AID 149);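 note: 0% = growth of vehicle-treated wt1 cultures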
Condition Context: S. cerevisiae wt1 strain (SPY 50644) growth inhibition; at 1.2 µM; stronger effect = higher value
Procedure: Growth inhibition of yeast strains with defined genetic alterations is measured as a screen for potential anti-cancer activity. Selected strains with alterations in DNA damage repair or cell cycle control were exposed to compounds and growth inhibition was measured relative to vehicle treated controls. The strain used in this assay is wt1
This is part of a sample that, as a whole, favours compounds with a hit. Of some 79,000 tested, about 15% had one in any assay.
Below, each of the compounds is paired with its reported growth inhibition value.

| Compound | growth inhibition / % |
| --- | --- |
| O=C1C2=C(c3ccccc31)C(c1ccccc1)N1C(=O)CSC1=N2 (stereo not given) | 10 |
| COc1cc(NCCCCNCC(C)(C)C)c2ncccc2c1 | -2 |
| O=[N+]([O-])c1cc[n+]([O-])c(Cl)c1 | -17 |
| O=C1C=CC(=Nc2cccc3c2-c2ccccc2C3=O)O1 | -2 |
| Cc1cc(C)c(S(=O)(=O)c2ccc(Cl)cc2)c(C)c1 | -5 |
| CC(C)[Si]1(C(C)C)OCC2OC(n3cnc4c(N)ncnc43)C(N)C2O[Si](C(C)C)(C(C)C)O1 (stereo not given) | 5 |
| CCCCCCCC/C=C\CCCCCCCCN | 13 |
| O=C(NOC(=O)c1ccc([N+](=O)[O-])cc1)c1ccc(Cl)cc1 | -30 |
| CC1=CN2C(c3ccccc3)=NON(c3ccc(C)cn3)C2C=C1 (stereo not given) | -3 |
| CNCC(C)CNC | -25 |
| ClCCCOc1c(Cl)cc(Cl)cc1Cl | -1 |
| CSc1nc(-c2ccccc2)nc(=[N+]2CCOCC2)s1 | 5 |
| O=C(NO)c1coc2ccccc2c1=O | 4 |
| CC1=NN(C(=O)CC(=O)NC(=O)/C=C\c2ccccc2)C(=O)C1N=Nc1ccc([N+](=O)[O-])cc1 (stereo not given) | 2 |
| COC(=N)c1ccc(O)c(C)c1 | -6 |
| Nc1cc(Cl)ccc1Nc1ccccc1 | -31 |
| S=C(NCc1ccccn1)N/N=C/c1ccccn1 | 98 |
| NC(=S)N1N=C2c3ccccc3CC[C@@H]2[C@@H]1c1ccccc1 | 11 |
| Cc1c(Cl)c(C)c(Cl)c(O)c1Cl | 11 |
| CCN1CCC(O)(c2ccc(Oc3ccc(C)cc3)cc2)C(C(=O)c2ccc(Oc3ccc(C)cc3)cc2)C1 (stereo not given) | -44 |
| CCOC(=O)/C(=C/c1cccc(Cl)c1)N(CC)CC | 8 |
| COC(=O)C(Cc1c[nH]c2ccccc12)N1CN(C)c2ccccc2C1=O (stereo not given) | 7 |
| CC(C)Cc1ncc(CCCN=C(N)N)[nH]c1=O | 0 |
| CN(C)/C(=N/C(=S)Nc1ccccc1)SCc1ccccc1 | -2 |
| O=C(NCCCCN(CCCNC(=O)C(F)(F)F)Cc1ccccc1)C(F)(F)F | 5 |

====

Protocol Description: NCI Yeast Anticancer Drug Screen. Data for the mec2-1 strain (AID 157)
Condition Context: S. cerevisiae mec2-1 strain, at 1.2 µM, stronger effect = higher value
This is part of a sample that, as a whole, favours compounds with a hit. Of some 79,000 tested, about 15% had one in any assay.
Property Measured: growth inhibition (%)

| Compound | Measure Unit | Endpoint Value |
| --- | --- | --- |
| CC1=CC(C)(C)SC(SSSC2=NC(C)=CC(C)(C)S2)=N1 | % | -2 |
| NC(N)=NS(=O)(=O)c1ccc(Nc2c3ccccc3nc3c(C(=O)NC(CO)(CO)CO)cccc23)cc1 | % | -1 |
| O=[N+]([O-])[O][Sn]([O][Sn]([O][N+](=O)[O-])([c]1ccccc1)[c]1ccccc1)([c]1ccccc1)[c]1ccccc1 | % | 9 |
| NNc1ccccc1-c1nc2ccccc2[nH]1 | % | 3 |
| COc1cc(NCCCCNCC(C)(C)C)c2ncccc2c1 | % | -3 |
| CC(=O)/C(=C\c1ccc(Cl)c(Cl)c1)C(=O)C(C)CN(C)C (stereo not given) | % | 19 |
| CC(C)N(CCCNc1c2ccccc2nc2cccc([N+](=O)[O-])c12)C(C)C | % | 12 |
| O=C1/C(=C/c2ccc(Cl)c(Cl)c2)CNC/C1=C\c1ccc(Cl)c(Cl)c1 | % | 25 |
| OC(Cc1cccc2ccccc12)CN1CCC(c2ccccc2)CC1 (stereo not given) | % | 17 |
| Nc1ccc2c(c1)C(=O)c1c(F)cccc1-2 | % | 3 |

====

Quick reference for growth inhibition among some molecules
Protocol Description: NCI Yeast Anticancer Drug Screen. Data for the wt1 strain (AID 149);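 note: 0% = growth of vehicle-treated wt1 cultures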
Condition Context: S. cerevisiae wt1 strain (SPY 50644) growth inhibition; at 1.2 µM; stronger effect = higher value
Procedure: Growth inhibition of yeast strains with defined genetic alterations is measured as a screen for potential anti-cancer activity. Selected strains with alterations in DNA damage repair or cell cycle control were exposed to compounds and growth inhibition was measured relative to vehicle treated controls. The strain used in this assay is wt1
This is part of a sample that, as a whole, favours compounds with a hit. Of some 79,000 tested, about 15% had one in any assay. The source made the active and inactive calls. Rule as the data show it: active = growth inhibition above about 70%; inactive = the rest.

| Molecule | growth inhibition |
| --- | --- |
| O=C1Nc2ccc(Br)cc2C1=Nc1cccnc1 | -25% (inactive) |
| CCCCCCCCCCCCCCCCCCNc1nc(=O)n(C2CC(OP(=O)(O)OCC3OC(n4cc(F)c(=O)[nH]c4=O)CC3O)C(CO)O2)cc1F (stereo not drawn) | 4% (inactive) |
| COc1cc([N+](=O)[O-])c2ncccc2c1Br | -1% (inactive) |
| O=C1CCC(Cc2ccccc2)CN1 (stereo not drawn) | -3% (inactive) |
| O=c1c2ccccc2nc(-c2cccc([N+](=O)[O-])c2)n1O | 12% (inactive) |
| CC1CCN(CCC(=O)c2ccc([N+](=O)[O-])cc2)CC1 | -1% (inactive) |
| Cc1cc(OCc2nc(N)nc(N)c2-c2ccc(Cl)c(Cl)c2)ccc1[N+](=O)[O-] | 1% (inactive) |
| COC1/C=C\C=C(/C)C(=O)NC2=CC(=O)C(=O)C(=C2O)CC(C)CC(OC)C(O)C(C)/C=C(\C)C1OC(N)=O (stereo not drawn) | 10% (inactive) |
| O=C(Cc1ccccc1)NNc1nc(NNC(=O)c2ccncc2)nc(Nc2ccc(Cl)cc2)n1 | -52% (inactive) |
| Nc1cc2c(cc1N)-c1ccccc1C2=O | -2% (inactive) |
| N#[N+]c1c([O-])c2ccccc2c2ccccc12 | 3% (inactive) |
| c1cc(-c2sc(-c3ccncc3)c(-c3ccncc3)c2-c2ccncc2)ccn1 | 2% (inactive) |
| COC(=O)C(=O)CC(=O)c1cccc(OC)c1 | 1% (inactive) |
| CS(=O)(=O)O.[Ag] | 77% (active) |
| CCc1c(Cl)c(C)c(Cl)c(O)c1Cl | -27% (inactive) |
| CCOP(=O)(OCC)/C(C#N)=C/c1cccc(Oc2ccccc2)c1 | -13% (inactive) |
| COc1cccc(C(NC2=NCCC=N2)c2cc3c(cc2O)OCO3)c1O (stereo not drawn) | -2% (inactive) |
| c1ccc2c(c1)ccn2CCc1c[nH]c2ccccc12 | -16% (inactive) |
| CC(C)C(c1ccccc1)c1ccccc1 | -1% (inactive) |
| Brc1ccc(B2Nc3ccccc3N2)cc1 | -2% (inactive) |
| C[N+](C)([O-])CCCNc1c2ccccc2nc2cccc([N+](=O)[O-])c12 | -3% (inactive) |
| CN(C)CCNc1ccc2ncn3c4ccc(O)cc4c(=O)c1c23 | -21% (inactive) |
| CC(C)=CCc1c2c(c(O)c3c(=O)c(-c4ccc(O)c(O)c4)coc13)C=CC(C)(C)O2 | -20% (inactive) |

====

Protocol Description: NCI Yeast Anticancer Drug Screen. Data for the CLN2oe strain (AID 163);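 note: 0% = growth of vehicle-only control cultures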
Condition Context: S. cerevisiae CLN2oe strain, at 3.7 µM
The panel holds about 79,000 compounds, 15% with a hit somewhere; the sample as a whole holds those more often. Active and inactive are the calls of the source. No stated cut-off is given here; in the data, active means growth inhibition above about 70%; inactive means the rest.
Labels: active, inactive

| Molecule | Classification |
| --- | --- |
| O=C1Oc2ccccc2C(=O)/C1=C/N1C(=O)N/C(=C\c2ccccc2Br)C1=O | inactive |
| CCCCN(CCC#N)c1ccc(/C=C/c2ccnc3ccccc23)cc1 | inactive |
| COc1ccc2nc3cccc([N+](=O)[O-])c3c(NCCNCCO)c2c1 | inactive |
| O=C1c2ccccc2C(=O)c2c(O)c(NCCNCCO)cc(O)c21 | inactive |
| O=S(=O)(NC1CCCC(c2ccccc2)C1)c1ccccc1 (stereo not given) | inactive |
| O=[N+]([O-])/C=C/c1cc2ccc3ccccc3c2[nH]1 | inactive |
| COc1ccc(C2CC(C)(N3CCCC3)Oc3cc4c(cc32)OCO4)cc1 (stereo not given) | inactive |
| CC(CN(C)C)C(=O)/C=C/c1ccc(Cl)c(Cl)c1 (stereo not given) | inactive |
| O=C(Oc1ccc([N+](=O)[O-])cc1)c1ccc([N+](=O)[O-])cc1 | inactive |
| CC(C)OP(=O)(OC(C)C)/C(Cl)=N/Nc1ccc([N+](=O)[O-])cc1 | inactive |
| Nc1ccc(S(=O)(=O)Nc2nc3c(c(=O)[nH]2)CCCC3)cc1 | inactive |
| CCOP(=O)(OCC)/C(C#N)=C/c1cccc(Oc2ccccc2)c1 | inactive |
| O=[N+]([O-])c1ccc2nc(=S)[nH]n2c1 | inactive |
| Cc1ccc(C)c(C(=N)c2ccccc2Cc2ccccc2)c1 | inactive |
| CCCC/C=C1\CCC(CN2CCCC2)C1=O (stereo not given) | inactive |
| COc1ccc(C(=O)/C=C\c2ccc(Cl)c(Cl)c2)cc1 | inactive |
| COc1ccc2nc(CCc3ccccc3)ccc2c1 | inactive |
| CC(C)CCC[C@@H](C)[C@H]1CC[C@H]2[C@@H]3CC[C@H]4C[C@H](N)CC[C@]4(C)[C@H]3CC[C@]12C | inactive |
| CCOP(=O)(OCC)/C(C#N)=C\c1cccc2ccccc12 | inactive |
| C/C1=C/C2OC(=O)C3(C)C2C(CC2(C)OC1=CC2=O)OC3(O)C(C)C (stereo not given) | inactive |
| CC(=O)N1C=Cc2c(c(C)c3c([nH]c4ccccc43)c2C)C1 | inactive |
| O=C(C#Cc1ccccc1)Nc1ccccc1 | inactive |
| O/N=c1/ccn(O)c2ccccc12 | inactive |
| NC(=O)NC1C(c2ccccc2)=C1c1ccccc1 | inactive |
| COC1=CCC23C(=O)C=CC(=O)C2(C1)C(=O)c1ccccc1C3=O (stereo not given) | inactive |
| CC1(C)CC(=O)C(/C=N/c2nc(-c3ccc(Br)cc3)cs2)=C(O)C1 | inactive |
| O=[N+]([O-])c1ccc(C(c2c[nH]c3ccccc23)c2c[nH]c3ccccc23)cc1 | active |
| CC(C)OC(=O)NNc1c(Cl)cc(Cl)cc1Cl | inactive |
| S=C(NCc1ccccn1)N/N=C/c1ccccn1 | active |
| CCC(OC(C)=O)C1CC(C(C)C)CCC1C (stereo not given) | inactive |
| Cc1oc2ccccc2c(=O)c1Cn1nnc2ccccc21 | inactive |
| CNC(=O)OCc1c(COC(=O)NC)c(C)n(-c2ccc(Br)cc2)c1C | inactive |
| CC(C)(C)c1ccc2c(c1)C(=O)c1ccccc1C2=O | inactive |
| CCCN=Cc1cc(Cc2ccc(O)c(C=NCCC)c2)ccc1O | active |
| N#[N+]c1c([O-])c2ccccc2c2ccccc12 | inactive |
| Cc1c(C(=O)/C=C/c2ccccc2[N+](=O)[O-])[n+](=O)c2ccccc2n1[O-] | inactive |
| CN1C(=O)C(CC(=O)O)NC1=S (stereo not given) | inactive |
| Cc1cc(OCc2nc(N)nc(N)c2-c2ccc(Cl)c(Cl)c2)ccc1[N+](=O)[O-] | inactive |
| Cc1c(Cl)c(C)c(Cl)c(O)c1Cl | inactive |
| Cc1ccccc1NC(=O)c1c(C)oc2c1C(=O)c1ccccc1C2=O | inactive |
| C[n+]1c(/C=C/c2ccc(/C=N/NC(=O)c3ccc(C(=O)N/N=C/c4ccc(/C=C/c5cn6ccccc6[n+]5C)cc4)cc3)cc2)cn2ccccc21 | active |
| O=[N+]([O-])c1cccc2nc3ccccc3c(NCCCN3CCCCC3)c12 | inactive |
| COc1cccc(/C=C2\S/C(=N/Nc3nc(-c4ccc([N+](=O)[O-])cc4)cs3)NC2=O)c1O | inactive |
| Nc1ccc2cc(Br)ccc2c1Br | inactive |
| CCN(CC)CCNc1ccc2nc(C)n3c4ccc(OC)cc4c(=O)c1c23 | inactive |
